# tested_on: T1, ヒト血清アルブミン (human, UniProt P02768 25-609)
# T1 construct: also called HSA; HSA
# assay_remarks: SPR (Biacore T200), HSA amine-coupled on CM5 chip, VHH as analyte
property_name: pKd
Give only the number. pKd is defined as minus log10 of concentration in molar units.

Asked: Value lookup for pKd; key = 配列番号:36により表されるアミノ酸配列を含む抗HSA抗体 (VHH, Expressed in E. coli BL21(DE3) pLysS from pRA2(+) behind a vector-encoded leader; also called H01A; H01A; not shown: C-terminal His tag from vector pRA2(+) (Ni-NTA purification, anti-His detection)) VHH: EVQLVESGGGFVQPGGSLRLSCVASGFTFERFDMGWVRQAPGKSLEWVSRFNSDDGRKSYADSVKGRFAISRDNAENTLYLQMNNLIPEDTAMYYCVKCQAYTSCTDAEDRGQGTQVTVSS
Given back: 7.64

Asked: Value lookup for pKd; key = 配列番号:39により表されるアミノ酸配列を含む抗HSA抗体 (VHH, Expressed in E. coli from pRA2(+); also called H14A; H14A; not shown: C-terminal His tag from vector pRA2(+) (Ni-NTA purification, anti-His detection)) VHH: QLQLVESGGGLVQAGGSLRLSCAASGRTFRFSAMGWFRQAPGKEREFAAAISWTGGTTAYAESVKGRFIISRDNAKNTVYLQMNSLKPEDTAVYYCAAGPIPSPASRYDDWGQGTQVTVSS
Given back: 6.53

Asked: Value lookup for pKd; key = 配列番号:37により表されるアミノ酸配列を含む抗HSA抗体 (VHH, Expressed in E. coli from pRA2(+); also called H08A; H08A; not shown: C-terminal His tag from vector pRA2(+) (Ni-NTA purification, anti-His detection)) VHH: EVQLVESGGGLVHPGGSLRLSCVASGSDVSSDTMGWFRRAPGKQRELVAAIAWGGSTHYAESVKGRFTISRDNAKNTVYLQLSNLKPEDTAVYLCNTRNYWGQGTQVTVSS
Given back: 7.21

Asked: Value lookup for pKd; key = 配列番号:38により表されるアミノ酸配列を含む抗HSA抗体 (VHH, Expressed in E. coli from pRA2(+); also called H10A; H10A; not shown: C-terminal His tag from vector pRA2(+) (Ni-NTA purification, anti-His detection)) VHH: QVQLVESGGGLVQTGGSLRLSCAASGRIVTVAAMGWFRQAPGKEREFVASISWSGRSRSYADSVKGRFTISRDNAKNTAYLQMSSLKPEDTGVYYCALGGNSYSSDYARYDYWGQGTQVTVSS
Given back: 6.91

Asked: Value lookup for pKd; key = 配列番号:40により表されるアミノ酸配列を含む抗HSA抗体 (VHH, Expressed in E. coli from pRA2(+); also called H32A; H32A; not shown: C-terminal His tag from vector pRA2(+) (Ni-NTA purification, anti-His detection)) VHH: QVQLVESGGGLVQAGKSLRLSCTASGSIPSIGVTGWHRQAPGKQRELVATISQGGHINYFESVKGRFTISRDNAKNTVYLQMNSLKPEDTGVYYCNAFWLPLRLNDYWGQGTQVTVSS
Given back: 10.11
